- test_description: IANBD-channel fluorescence artefacts in buffer – biochemical, artefact control for cardiac RTF calcium sensitizer project, confirmation (AID 504382)
- run_conditions: IANBD fluorescence interference counterscreen, EC20 Ca2+, at 7.2 µM, stronger effect = higher value, scaled: EC20 calcium 0, EC100 calcium 100
About 460 (18%) of roughly 2,500 compounds were called active. A selection follows.
assay_endpoint: fluorescence artifact activation (%)
# unit: % | format: bare number

Use the examples below as a reference point.
O=C(Cc1ccc(NC(=O)C2CCCN(C(=O)C3CCCCC3)C2)cc1)Nc1cccc(C(=O)N2CCCC2)c1 (stereo not given); 0.41
Cc1cc(/C=C2\SC(=S)N(Cc3ccco3)C2=O)c(C)n1-c1ccccc1; 3.1
COc1ccc(O)c(/C=N/c2nc3ccccc3n2C)c1; 0.05
CCCCc1ccc(NC(=O)c2cnccn2)cc1; 9.08
Cc1ccc([N+](=O)[O-])c(OCCCN2C(=O)NC(C)(C)C2=O)c1; 0.02

// Input: `COc1ccc2nc3ccccc3nc2c1NC(=O)c1ccc(Cl)cc1Cl` . Output its fluorescence artifact activation only.
0.06

// Input: `CCCCCCSc1ccc([C@@H]2[C@H]3C(=O)N(CC)C(=O)[C@H]3[C@]3(C(=O)OC)CCCCN23)cc1OC` . Output its fluorescence artifact activation only.
-0.04
